# reported pKi; entries follow
target: Neuronal acetylcholine receptor; alpha4/beta2 (Rattus norvegicus, UniProt P09483+P12390); experiment: Binding affinity towards alpha4-beta2 measured by using the inhibition of [3H]NIC binding to rat striatal membrane
Sequence (P09483 whole entry): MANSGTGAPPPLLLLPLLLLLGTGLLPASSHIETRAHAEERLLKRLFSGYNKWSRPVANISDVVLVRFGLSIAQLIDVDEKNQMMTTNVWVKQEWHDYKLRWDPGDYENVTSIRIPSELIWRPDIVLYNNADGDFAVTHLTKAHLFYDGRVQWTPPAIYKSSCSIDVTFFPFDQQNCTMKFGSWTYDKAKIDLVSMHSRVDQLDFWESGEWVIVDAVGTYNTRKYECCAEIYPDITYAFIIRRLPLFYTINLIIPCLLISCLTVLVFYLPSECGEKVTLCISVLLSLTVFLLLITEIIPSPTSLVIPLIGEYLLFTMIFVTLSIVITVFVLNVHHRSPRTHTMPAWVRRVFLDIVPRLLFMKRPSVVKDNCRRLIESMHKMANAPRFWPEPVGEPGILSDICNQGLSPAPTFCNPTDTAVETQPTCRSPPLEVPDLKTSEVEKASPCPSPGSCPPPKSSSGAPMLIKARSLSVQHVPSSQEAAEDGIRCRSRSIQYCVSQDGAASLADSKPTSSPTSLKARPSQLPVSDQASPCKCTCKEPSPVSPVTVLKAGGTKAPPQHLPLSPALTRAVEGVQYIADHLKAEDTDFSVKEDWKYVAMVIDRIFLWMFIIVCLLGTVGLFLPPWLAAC
Sequence (P12390 whole entry): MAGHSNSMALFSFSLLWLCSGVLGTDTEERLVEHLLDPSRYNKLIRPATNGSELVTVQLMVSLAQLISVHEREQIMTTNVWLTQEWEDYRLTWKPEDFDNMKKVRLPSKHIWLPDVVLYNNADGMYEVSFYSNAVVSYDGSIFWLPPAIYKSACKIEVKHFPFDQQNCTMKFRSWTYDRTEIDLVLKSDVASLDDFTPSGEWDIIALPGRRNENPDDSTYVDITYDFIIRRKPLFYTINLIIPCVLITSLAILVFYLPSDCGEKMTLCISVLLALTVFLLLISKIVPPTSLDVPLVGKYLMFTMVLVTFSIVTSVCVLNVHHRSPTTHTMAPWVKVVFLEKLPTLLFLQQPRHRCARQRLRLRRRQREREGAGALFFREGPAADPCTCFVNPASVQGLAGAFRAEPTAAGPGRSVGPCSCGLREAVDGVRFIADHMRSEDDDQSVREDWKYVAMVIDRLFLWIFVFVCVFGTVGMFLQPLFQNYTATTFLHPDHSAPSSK
Keep it numeric: pKi is minus log10 of the concentration in mol/L.

Example entries begin here.
Just so you know, measured pKi for O=C(C1CCCCN1)N1CCN(Cc2cccnc2)CC1 (racemic) came out at 4.26

Consider c1cc(CN2CCN(C[C@@H]3CCCN3)CC2)ccn1 . Its measured pKi is 4.34

Please fill in: pKi reported for O=C(C1CCCCN1)N1CCN(Cc2ccncc2)CC1 (racemic) = 4.22

Others:
Documented pKi of CN1CCC[C@H]1CN1CCN(Cc2ccncc2)CC1 : 4.41

Looking up CN1CCCCC1CN1CCN(Cc2ccncc2)CC1 (racemic) , I found its pKi recorded as 4.38
